MEASUREMENT NOTES: Metabolic stability in mouse liver microsomes at 1 uM measured after 30 mins in presence of NADPH regeneration system by LC-MS/MS analysis
Type: ADME, Microsome
CONDITION DETAILS: read-out: Stability
I'd appreciate it if you could supply remaining at 0.5 h, 1 µM values for the items below.
Returns: string containing the numeric result and its unit.

* COc1ccccc1Nc1c(N[C@H]2CC[C@H](Oc3ccc([N+](=O)[O-])cc3)CC2)c(=O)c1=O | 46.9%

Turning now to a further record.
Problem: Please look up its remaining at 0.5 h, 1 µM: COc1ccccc1Nc1c(N[C@H]2CC[C@H](Oc3ccc(C#N)cc3)CC2)c(=O)c1=O
Result: 31%

---

Please go through the items and note down their remaining at 0.5 h, 1 µM.
MEASUREMENT NOTES: Metabolic stability in rat liver microsomes at 1 uM measured after 30 mins in presence of NADPH regeneration system by LC-MS/MS analysis
Format: ADME, Microsome
CONDITION DETAILS: read-out: Stability
One number for each entry, in %.

# per-item lookup of remaining at 0.5 h, 1 µM; items listed below
1. COc1ccccc1Nc1c(N[C@H]2CC[C@H](Oc3ccc(C#N)cc3)CC2)c(=O)c1=O
2. COc1ccccc1Nc1c(N[C@H]2CC[C@H](Oc3ccc([N+](=O)[O-])cc3)CC2)c(=O)c1=O

Result:
1: 26.5; 2: 32.5

---

MEASUREMENT NOTES: Terminal half life in 16 hrs fasted ICR mouse at 2 mg/kg, iv measured upto 8 hrs by LC-MS/MS analysis
Type: ADME, organism-based
CONDITION DETAILS: in vivo, read-out: beta t1/2 (converted)
MEASURED PROPERTY: half-life (h)
Answers are plain numbers, in h.

Problem: # input compound: COc1ccccc1Nc1c(N[C@H]2CC[C@H](Oc3ccc([N+](=O)[O-])cc3)CC2)c(=O)c1=O ; wanted: its half-life
Result: 1.4

---

Field: inhibition. Provide a value for each of the molecules that follow.
MEASURED TARGET: UniProtKB P36956
MEASUREMENT NOTES: Inhibition of SREBP-1c transcriptional activity in human HepG2 cells expressing LXRalpha/RXRalpha assessed as reduction in SRE-luciferase level at 10 uM pretreated with compound for 30 mins followed by T0901317 addition and measured after 12 hrs by Dual-Glo luciferase assay relative to control
Assay type: cell-based
CONDITION DETAILS: time 12.5 hrs
Give bare numbers, in %.

Completed entries (count: 5):
- CC(C)(C)c1ccc(Nc2c(N[C@H]3CC[C@H](Oc4ccc([N+](=O)[O-])cc4)CC3)c(=O)c2=O)cc1: 42.8
- CS(=O)(=O)c1ccc(O[C@H]2CC[C@H](Nc3c(Nc4ccc(Cl)cc4)c(=O)c3=O)CC2)cc1: 107
- O=c1c(Nc2ccc(Cl)cc2)c(N[C@H]2CC[C@H](Oc3ccc(C(F)(F)F)cc3)CC2)c1=O: 39.1
- COc1ccccc1Nc1c(N[C@H]2CC[C@H](Oc3ccc([N+](=O)[O-])cc3)CC2)c(=O)c1=O: 27.7
- COc1ccc(Nc2c(N[C@H]3CC[C@H](Oc4ccc(S(C)(=O)=O)cc4)CC3)c(=O)c2=O)cc1: 53.3

Dear colleague, could you please provide inhibition for the molecules listed below?
1. COc1ccc(Nc2c(N[C@H]3CC[C@H](Oc4ccc(C#N)cc4)CC3)c(=O)c2=O)cc1
2. COc1cccc(Nc2c(N[C@H]3CC[C@H](Oc4ccc(S(C)(=O)=O)cc4)CC3)c(=O)c2=O)c1
3. COC(=O)c1ccc(Nc2c(N[C@H]3CC[C@H](Oc4ccc(C(F)(F)F)cc4)CC3)c(=O)c2=O)cc1
4. O=c1c(Nc2ccc(F)cc2)c(N[C@H]2CC[C@H](Oc3ccc(C(F)(F)F)cc3)CC2)c1=O
5. O=c1c(Nc2ccc(Cl)cc2)c(N[C@H]2CC[C@H](Oc3ccc([N+](=O)[O-])cc3)CC2)c1=O

Result:
[35.7, 51.1, 47.5, 40, 24.3]

For each entry beneath this line, provide reported inhibition.
1. N#Cc1ccc(O[C@H]2CC[C@H](Nc3c(Nc4ccc(F)cc4)c(=O)c3=O)CC2)cc1
2. COc1ccccc1Nc1c(N[C@H]2CC[C@H](Oc3ccc(C(F)(F)F)cc3)CC2)c(=O)c1=O
3. COC(=O)c1ccc(Nc2c(N[C@H]3CC[C@H](Oc4ccc(C#N)cc4)CC3)c(=O)c2=O)cc1
4. O=c1c(Nc2ccc(F)cc2)c(N[C@H]2CC[C@H](Oc3ccc([N+](=O)[O-])cc3)CC2)c1=O
5. CS(=O)(=O)c1ccc(O[C@H]2CC[C@H](Nc3c(Nc4ccccc4)c(=O)c3=O)CC2)cc1

Result:
1: 46.2; 2: 21.5; 3: 50.4; 4: 23.9; 5: 76.2

For each of the molecules below, note its inhibition.
1. COc1ccc(Nc2c(N[C@H]3CC[C@H](Oc4ccc(C(F)(F)F)cc4)CC3)c(=O)c2=O)cc1
2. COc1ccc(Nc2c(N[C@H]3CC[C@H](Oc4ccc([N+](=O)[O-])cc4)CC3)c(=O)c2=O)cc1
3. O=c1c(Nc2ccccc2)c(N[C@H]2CC[C@H](Oc3ccc(C(F)(F)F)cc3)CC2)c1=O
4. N#Cc1ccc(O[C@H]2CC[C@H](Nc3c(Nc4ccc(Cl)cc4)c(=O)c3=O)CC2)cc1
5. COc1ccccc1Nc1c(N[C@H]2CC[C@H](Oc3ccc(S(C)(=O)=O)cc3)CC2)c(=O)c1=O
6. COc1ccccc1Nc1c(N[C@H]2CC[C@H](Oc3ccc(C#N)cc3)CC2)c(=O)c1=O
7. N#Cc1ccc(O[C@H]2CC[C@H](Nc3c(Nc4ccccc4)c(=O)c3=O)CC2)cc1
8. COC(=O)c1ccc(Nc2c(N[C@H]3CC[C@H](Oc4ccc([N+](=O)[O-])cc4)CC3)c(=O)c2=O)cc1

Result:
35.6
57.6
70.8
87.1
22.2
32.6
80.1
41.7
